assay: qHTS assay to identify small molecule agonists of the estrogen related receptor signaling pathway with the pleiotropic PPARgamma coactivator (PGC) (AID 1224823); conditions: ERR/PGC reporter cell line, luciferase agonist mode; series mostly up to 46.1 µM
Results filed as inconclusive are left out. Activity calls are given as the source filed them. Calls follow the shape of the dose curve; as a rule, active = well fitted activation curve with a large enough effect in the repeat runs; inconclusive = weak or mixed curves; inactive = no such curve, though single readings can be large or run the other way.
Possible outcomes: active, inactive

In [3]: df
Out[3]:
                                    compound     group
 0                           C[N+](C)(C)CC=O  inactive
 1  COc1ccc2c(c1)CCC1C2CC[C@@]2(C)C1CC[C@@H]2NCCCCCCN1C(=O)C=CC1=O (stereo partly drawn)  inactive
 2            CCCn1c(=O)[nH]c(=O)c2[nH]cnc21  inactive
 3  O=C1c2ccccc2C(=O)c2c(NCCc3ccc(O)cc3)ccc(NCCc3ccc(O)cc3)c21  inactive
 4  NC(C(=O)N[C@@H]1C(=O)N2C(C(=O)O)=C(Cl)CS[C@H]12)c1ccccc1 (stereo partly drawn)  inactive
 5  COc1cc(/C=C(\C#N)C(=O)Nc2nnc(C(F)(F)F)s2)ccc1OCc1ccc(C(F)(F)F)cc1C(F)(F)F  inactive
 6   Clc1ccc(N2CCN(Cc3c[nH]c4ncccc34)CC2)cc1  inactive
 7  CCOC(=O)C12CC1/C(=N/O)c1ccccc1O2 (stereo not drawn)  inactive
 8  Nc1nc2c(ncn2[C@@H]2O[C@H](CO)[C@@H](O)[C@@H]2O)c(=O)[nH]1  inactive
 9  O=C(c1cc(O)c(O)c([N+](=O)[O-])c1)c1ccccc1F  inactive
10  COc1cc2nc(N3CCCN(C)CC3)nc(NC3CCN(Cc4ccccc4)CC3)c2cc1OC  inactive
11                 Cc1ccc(O)c(N=Nc2ccccc2)n1  inactive
12  COc1cccc(OC)c1OCCNCC1COc2ccccc2O1 (stereo not drawn)  inactive
13  CC(C)C[C@H](NC(=O)[C@@H](O)[C@H](N)Cc1ccccc1)C(=O)O  inactive
14  C[C@@H](N)C1CCC(C(=O)Nc2ccncc2)CC1 (stereo partly drawn)  inactive
15  O=C1NC(=O)C(c2ccccc2[N+](=O)[O-])=C1Nc1ccc(O)c(Cl)c1  inactive
16       O=C(/C=C/c1ccc(O)c(O)c1)OCCc1ccccc1    active
17           Fc1cccc(/C=N/N=C/c2cccc(F)c2)c1    active
18             Nc1nc2[nH]c(=O)cnc2c(=O)[nH]1  inactive
19                    O=c1ccc2ccc(O)c(O)c2o1  inactive
20                             c1ccc2occc2c1  inactive
21  CC(C)c1ccc2c(c1)c(SC(C)(C)C)c(CC(C)(C)C(=O)O)n2Cc1ccc(Cl)cc1  inactive
22    Cc1ccc2c(c1)C(N1CCN(C)CC1)=Nc1cccnc1N2  inactive

###

experiment: qHTS assay to identify small molecule agonists of the RXR signaling pathway - cell viability counter screen (AID 1159529); conditions: RXR-alpha-bla HEK293T viability, CellTiter-Glo, 16 h; series mostly up to 76.8 µM; also: nearly all actives have a fitted effect of over 50% in size
Results filed as inconclusive are left out. The source made the active and inactive calls. The call rests on the fitted dose curve; in most records, active means well fitted cell-killing curve with a large enough effect in the repeat runs; inconclusive means weak or mixed curves, or effect the other way; inactive means no such curve, though single readings can be large or run the other way.
Possible outcomes: active, inactive

>>> df
                                    compound     group
 0                        Cc1ccc(Cl)c(N)c1Cl    active
 1                                  C1=CCCC1  inactive
 2                     Cc1c[nH]c(=O)[nH]c1=O  inactive
 3  O=C(N[C@H](CO)[C@H](O)c1ccc([N+](=O)[O-])cc1)C(Cl)Cl  inactive
 4                 CC1=CC[C@@H](C(C)(C)O)CC1  inactive
 5                          Oc1ccc2c(c1)CCC2  inactive
 6                CCNc1nc(NC(C)(C)C)nc(OC)n1  inactive
 7                CCC(=O)OC/C=C(\C)CCC=C(C)C  inactive
 8  CC(C)(c1ccc(Oc2ccc(N)cc2)cc1)c1ccc(Oc2ccc(N)cc2)cc1  inactive
 9                     CC(C)=CCC[C@H](C)CC=O  inactive
10  CN1CC[C@H](c2c(O)cc(O)c3c(=O)cc(-c4ccccc4Cl)oc23)[C@H](O)C1  inactive
11  Oc1ccc(C2(c3ccc(O)c(C4CCCCC4)c3)CCCCC2)cc1C1CCCCC1    active
12              C/C=C/C(=O)C1=C(C)C=CCC1(C)C  inactive
13                  O=[N+]([O-])c1ccc(CO)cc1  inactive
14     CCCCCN=C(N)N/N=C/c1c[nH]c2ccc(OC)cc12    active
15                             c1ccc2occc2c1  inactive
16                        [Cl][Dy]([Cl])[Cl]  inactive
17        Nc1ccc(Oc2cccc(Oc3ccc(N)cc3)c2)cc1  inactive
18  CCC1(C)C(=O)N(Cl)C(=O)N1Cl (configuration not stated)  inactive
19                        [Cl][Sc]([Cl])[Cl]  inactive
20                                  Cn1ccnc1  inactive
21                 Nc1cc([N+](=O)[O-])ccc1Cl  inactive
22             COC(=O)c1ccc([N+](=O)[O-])cc1  inactive
23  O=C1OC(=O)c2cc(-c3ccc4c(c3)C(=O)OC4=O)ccc21  inactive
24  CC/C(=C(/c1ccc(O)cc1)c1ccc(OCCN(C)C)cc1)c1ccccc1    active
25         O[Si](c1ccccc1)(c1ccccc1)c1ccccc1  inactive
26  O=C(Nc1ccc([N+](=O)[O-])cc1)Nc1ccc([N+](=O)[O-])cc1 (tested in a mixture with another compound)    active

From: PubChem BioAssay (Tox21)
